These entries and their values trace back to ChEMBL document CHEMBL3988442.

Please provide measured Percent Effect for the entries that follow.
# Test system: Trypanosoma cruzi
# test.details: Trypanosoma cruzi phosphomannomutase and mannose-1-phosphate guanylyltransferase assay
# Assay type: functional
# Set-up: scale not given: direction of the effect not stated beside the values
# condition.description: 10 µM
Please don't drop the unit; write it after the number.

Name the recorded Percent Effect for Cc1cc(NC(=O)C(C)N2CCCN(c3nccs3)CC2)on1 (configuration not stated) .
1.03%

Name the recorded Percent Effect for O=C(NCc1cc[nH]n1)NCC(O)c1ccc(F)cc1F (configuration not stated) .
-4.82%

Name the recorded Percent Effect for Cc1ccc(CN2CCCn3c(nc(CN4CCCC4)cc3=O)C2)s1 .
-2.82%

Name the recorded Percent Effect for COC(=O)N1C[C@H]2CC[C@@H]1CN(Cc1cscn1)C2 .
7.66%

Name the recorded Percent Effect for CC(C(=O)N1CCCC1)N1CCC(c2nccn2Cc2cscn2)CC1 (configuration not stated) .
-3.4%

Name the recorded Percent Effect for COc1cccc(COCC(=O)N2CCCC(n3ccnc3C)C2)c1 (configuration not stated) .
4.6%

Name the recorded Percent Effect for NC(=O)C1(CCCc2cccnc2)CCCN(c2ncccn2)C1 (configuration not stated) .
-3.16%

Name the recorded Percent Effect for Cc1cnn(C2CCCN(C(=O)c3sccc3C#N)C2)c1 (configuration not stated) .
-1.78%

Name the recorded Percent Effect for CC(C)(C)n1ncc2c1NC(=O)CC2c1ccc(OCC(N)=O)cc1 (configuration not stated) .
0.097%

Name the recorded Percent Effect for Cc1cccc(CN2CCC3(CCN(c4ccccn4)C3)C2=O)c1 (configuration not stated) .
3%

Name the recorded Percent Effect for CC(C)(C)c1nnc(CN2CCCC(Cn3cncn3)C2)o1 (configuration not stated) .
4.41%

Name the recorded Percent Effect for NCc1cn(-c2ccccc2C(=O)NCc2cccc(Cl)c2)cn1 .
-7.3%

====

# target.of.assay: Tyrosyl-tRNA synthetase, putative (Trypanosoma cruzi (strain CL Brener))
# Sequence (whole entry): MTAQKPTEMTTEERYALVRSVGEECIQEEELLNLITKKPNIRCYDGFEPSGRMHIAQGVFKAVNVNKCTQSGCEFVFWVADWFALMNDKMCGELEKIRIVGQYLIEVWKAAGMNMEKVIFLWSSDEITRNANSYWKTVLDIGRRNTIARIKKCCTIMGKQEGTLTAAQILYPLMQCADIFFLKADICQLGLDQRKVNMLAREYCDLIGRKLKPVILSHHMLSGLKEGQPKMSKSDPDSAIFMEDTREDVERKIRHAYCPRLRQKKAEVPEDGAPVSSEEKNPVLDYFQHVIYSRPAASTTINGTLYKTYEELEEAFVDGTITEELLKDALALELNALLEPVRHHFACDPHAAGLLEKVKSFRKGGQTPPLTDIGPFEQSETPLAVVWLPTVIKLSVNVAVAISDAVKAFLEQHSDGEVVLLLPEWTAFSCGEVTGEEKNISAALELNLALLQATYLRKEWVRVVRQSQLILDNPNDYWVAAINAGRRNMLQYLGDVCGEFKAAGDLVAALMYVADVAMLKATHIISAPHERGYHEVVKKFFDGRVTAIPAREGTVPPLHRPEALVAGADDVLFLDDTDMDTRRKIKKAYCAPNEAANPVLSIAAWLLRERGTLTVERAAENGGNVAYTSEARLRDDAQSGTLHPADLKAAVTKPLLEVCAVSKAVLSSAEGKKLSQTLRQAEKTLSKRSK
# test.details: Trypanosoma cruzi tyrosyl tRNA synthetase (TcYRS) SOP
# Type: functional
# Parameters: scale not given: direction of the effect not stated beside the values
# condition.description: 30 µM
One threshold, 10%, splits the recorded Percent Effect values: lower ones are true (1), equal or higher ones are false (0).

Take the compound O=C(NCCc1cccnc1)N1CCCC1c1ccsc1 (configuration not stated) and say whether its Percent Effect is less than 10%.
false (0)

Take the compound COCC1CC2(CCN(Cc3ccc(OC)cc3)CC2)CN1C(C)C (configuration not stated) and say whether its Percent Effect is less than 10%.
true (1)

Take the compound Cn1ccnc1CN1CCCC1c1noc(C2CC2)n1 (configuration not stated) and say whether its Percent Effect is less than 10%.
false (0)

Take the compound O=C(NC[C@]1(O)CN(Cc2ccccc2F)C[C@H]1O)c1ccccn1 and say whether its Percent Effect is less than 10%.
false (0)

Take the compound CC(C)NC(=O)N1CCC2(CC(=O)N(c3cccc(C#N)c3)C2)C1 (configuration not stated) and say whether its Percent Effect is less than 10%.
true (1)

Take the compound Cn1ncc(NCc2cc(F)cc(F)c2)c(Cl)c1=O and say whether its Percent Effect is less than 10%.
false (0)

Take the compound COCC1CN(Cc2ccc(OC)cc2)Cc2nn(C)cc21 (configuration not stated) and say whether its Percent Effect is less than 10%.
true (1)

Take the compound CCc1ncc(C(=O)N2CCOCC2c2c(C)n[nH]c2C)s1 (configuration not stated) and say whether its Percent Effect is less than 10%.
true (1)

Take the compound NC(=O)N1CCC2(CC1)CN(Cc1cccnc1)C(=O)CO2 and say whether its Percent Effect is less than 10%.
false (0)

Take the compound COc1cccc(-n2nnc(C(=O)N3CCNC(=O)C3)c2C)c1 and say whether its Percent Effect is less than 10%.
false (0)

Take the compound O=C(c1cc(Cl)c2c(c1)OCCO2)N1CCCC(n2cncn2)C1 (configuration not stated) and say whether its Percent Effect is less than 10%.
true (1)

====

# target.of.assay: Tyrosyl-tRNA synthetase, putative (Trypanosoma cruzi (strain CL Brener)) (UniProt Q4DSP6)
# Sequence (whole entry): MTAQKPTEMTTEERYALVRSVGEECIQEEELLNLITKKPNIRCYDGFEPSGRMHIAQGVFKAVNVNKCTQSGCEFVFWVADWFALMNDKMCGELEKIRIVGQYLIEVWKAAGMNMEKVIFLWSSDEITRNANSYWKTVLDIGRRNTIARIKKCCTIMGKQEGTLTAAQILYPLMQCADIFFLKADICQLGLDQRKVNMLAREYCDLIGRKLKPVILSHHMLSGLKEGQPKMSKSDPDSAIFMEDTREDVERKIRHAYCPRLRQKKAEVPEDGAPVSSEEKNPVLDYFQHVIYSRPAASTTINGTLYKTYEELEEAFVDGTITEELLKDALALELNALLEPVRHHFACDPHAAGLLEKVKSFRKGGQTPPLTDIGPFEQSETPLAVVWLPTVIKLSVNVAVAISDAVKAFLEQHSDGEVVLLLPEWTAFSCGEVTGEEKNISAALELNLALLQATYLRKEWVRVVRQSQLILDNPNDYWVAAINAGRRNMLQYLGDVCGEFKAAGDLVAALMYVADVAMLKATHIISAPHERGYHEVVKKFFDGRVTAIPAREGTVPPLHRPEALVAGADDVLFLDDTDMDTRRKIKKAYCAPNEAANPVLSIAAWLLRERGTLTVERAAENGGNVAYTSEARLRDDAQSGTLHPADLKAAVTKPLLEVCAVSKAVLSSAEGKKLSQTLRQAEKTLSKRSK
# test.details: Trypanosoma cruzi tyrosyl tRNA synthetase (TcYRS) _High Tyrosine SOP; also: in the data most compounds retested in dose-response had high values
# Assay type: functional
# Set-up: scale not given: direction of the effect not stated beside the values
# condition.description: 30 µM
# Percent Effect >= 6% gives 1.0, anything below gives 0.0

Hi, just wondering whether COCCN1C[C@@H]2CN(C(=O)[C@H]3CCCO3)C[C@@H]2C1=O shows Percent Effect of 6% or higher.
1.0

Hi, just wondering whether O=C(c1ccnnc1)N1CCC2(CC1)CC(N1CCOCC1)C2 shows Percent Effect of 6% or higher.
0.0

Hi, just wondering whether O=C(NCC1CCOC1)Nc1ccc(OCC(F)(F)F)nc1 (stereo unspecified) shows Percent Effect of 6% or higher.
0.0

Hi, just wondering whether CC(C)c1nnc2n1CCN(C(=O)c1ccc3cc[nH]c3c1)C2 shows Percent Effect of 6% or higher.
0.0

Hi, just wondering whether CCCn1ncc2c(C(=O)Nc3cnn(CC)c3C)cc(C3CC3)nc21 shows Percent Effect of 6% or higher.
0.0

Hi, just wondering whether Cc1noc(Cl)c1CCC(=O)N1CCc2sccc2C1 shows Percent Effect of 6% or higher.
0.0

====

# target.of.assay: Proteasome subunit beta (Trypanosoma cruzi) (UniProt O96673)
# Sequence (O96673 as listed by the source): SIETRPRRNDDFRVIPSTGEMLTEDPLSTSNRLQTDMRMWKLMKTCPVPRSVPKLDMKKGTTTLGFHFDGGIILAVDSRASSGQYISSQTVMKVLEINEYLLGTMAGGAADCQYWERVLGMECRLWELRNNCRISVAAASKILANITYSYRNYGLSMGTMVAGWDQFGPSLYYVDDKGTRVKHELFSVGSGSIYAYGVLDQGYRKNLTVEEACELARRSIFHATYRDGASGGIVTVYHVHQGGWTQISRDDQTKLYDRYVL
# test.details: Trypanosoma cruzi proteasome chymotrypsin-like activity (TcProtChymo) assay. Also: in the data most compounds retested in dose-response had high values.
# Type: functional
# Design: scale not given: direction of the effect not stated beside the values
# condition.description: 9.37 µM
assay.metric: Percent Effect (%)
Provide only the numeric value, understood in %.

Name the recorded Percent Effect for CC(C)N1CCO[C@H]2CN(C(=O)c3ccoc3)C[C@H]21 .
4.85

Name the recorded Percent Effect for CC(C(=O)N1CCCC1)N1CCC(c2nccn2Cc2cscn2)CC1 (centres undefined) .
13

Name the recorded Percent Effect for c1ccc(Cn2ccnc2CN2CCCC2c2noc(C3CC3)n2)cc1 (centres undefined) .
19.1

Name the recorded Percent Effect for CCn1nc2c(cc1=O)CN(Cc1nc(-c3ccccn3)no1)CC2 .
14.1

Name the recorded Percent Effect for O=C1C[C@H]2[C@@H](CCN2C(=O)Cc2cccs2)N1Cc1cccnc1 .
13.7

Name the recorded Percent Effect for COCCCN1CC2(CCCCN2C(=O)c2ccsc2)CC1=O (centres undefined) .
0.601

Name the recorded Percent Effect for Cc1[nH]nc(CCC(=O)N2CCCC(OCc3cccnc3)C2)c1C (centres undefined) .
2.91

Name the recorded Percent Effect for CC(C)NC(=O)C(c1ccccc1)N1CCn2c(nnc2C2CC2)C1 (centres undefined) .
4.86

Name the recorded Percent Effect for CN(C)CC1CN(Cc2coc(-c3cccs3)n2)CCO1 (centres undefined) .
11.8

Name the recorded Percent Effect for O=c1cccnn1CC1CN(Cc2ccsc2)Cc2nccn2C1 (centres undefined) .
8.91

Name the recorded Percent Effect for CC1(C)OCC(CNC(=O)c2cnn(-c3ccc(Cl)cc3)c2N)O1 (centres undefined) .
14

Name the recorded Percent Effect for Cc1ccc(C(=O)N2CCCC3(CCCC(=O)N3C)C2)cc1F (centres undefined) .
14.5

Name the recorded Percent Effect for CCCN1CCCn2nc(CNS(=O)(=O)c3cccc(C#N)c3)cc2C1 .
19.4

Name the recorded Percent Effect for N#Cc1ccccc1C(=O)N1C[C@H](CO)C[C@H](CN2CCCC2)C1 .
5.65

Name the recorded Percent Effect for CCc1ccc(CN2CCC3(CC2)NC(=O)CC3c2ccncc2)o1 (centres undefined) .
9.27

Name the recorded Percent Effect for O=C(Cn1cc(-c2ccccc2)ncc1=O)Nc1ccncc1 .
20

Name the recorded Percent Effect for O=C1CC(c2ccccc2)C2(CCN(Cc3ccccn3)CC2)N1 (centres undefined) .
8.33

Name the recorded Percent Effect for CC(C)C(=O)N1CCC2(CCCN(CCOc3ccccc3)C2)C1 (centres undefined) .
1.63

Name the recorded Percent Effect for CC(CC#N)NC(=O)c1cc(Br)c2c(c1)OCCO2 (centres undefined) .
-1.61

Name the recorded Percent Effect for COc1ncc(C2CC(=O)NCc3nc4ccccn4c32)cn1 (centres undefined) .
6.34

Name the recorded Percent Effect for Cc1ccc(-c2nc(CCNC(=O)NC3CCN(C)CC3)co2)cc1 .
12.3

Name the recorded Percent Effect for CS(=O)(=O)NCC1CCCN(C(=O)COCC(F)(F)F)C1 (centres undefined) .
6.57

Name the recorded Percent Effect for CN(C)S(=O)(=O)N1CC[C@]2(C[C@H](Oc3ncccc3F)CO2)C1 .
1.15

Name the recorded Percent Effect for Cc1nn(-c2ccccc2)c(C)c1CNC1CCc2ncnn2C1 (centres undefined) .
7.93
